Answer each item with its documented CC50.
- assayOverview: in vitro
- Format: cell-based
- measurementParameters: African green monkey, CC50
Numeric answer plus unit only.

Give CC50 for each listed item.
1. COc1cc(NC(C(=O)c2c[nH]c3cc(Cl)ccc23)c2ccc(Cl)cc2OC)cc(OCCO)c1 (racemic) [Compound 4]
2. COc1cc(NC(C(=O)c2c[nH]c3cc(OC)ccc23)c2ccc(Cl)cc2OC)cc(OCCO)c1 (single isomer, unassigned) [Compound 5A]

6.3 µM
5.9 µM

* * *

Answer each item with its documented CC50.
- assayOverview: in vitro
- Type: cell-based
- measurementParameters: African green monkey, CC50
Give bare numbers, in µM.

Past entries and their recorded results:
- molecule: "COc1cc(NC(C(=O)c2c[nH]c3cc(F)c(F)cc23)c2ccc(Cl)cc2OC)cc(OCCO)c1 (single isomer, unassigned) [Compound 9A]"
  CC50 [µM]: 3.9
- molecule: "COc1cc(NC(C(=O)c2c[nH]c3c(F)cc(C)cc23)c2ccc(Cl)cc2OC)cc(OCCO)c1 (single isomer, unassigned) [Compound 10A]"
  CC50 [µM]: 4.5
- molecule: "COc1cc(NC(C(=O)c2c[nH]c3cc(F)ccc23)c2ccc(Cl)cc2OC)cc(OCCO)c1 (single isomer, unassigned) [Compound 1A]"
  CC50 [µM]: 4.3
- molecule: "COc1cc(NC(C(=O)c2c[nH]c3cc(OC)ccc23)c2ccc(Cl)cc2OC)cc(OCCO)c1 (racemic) [Compound 5]"
  CC50 [µM]: 6.5

Give CC50 for each listed item.
1. COc1cc(NC(C(=O)c2c[nH]c3cc(F)c(F)cc23)c2ccc(Cl)cc2OC)cc(OCCO)c1 (racemic) [Compound 9]
2. COc1cc(NC(C(=O)c2c[nH]c3c(F)cc(C)cc23)c2ccc(Cl)cc2OC)cc(OCCO)c1 (stereo not drawn) [Compound 10]

[7.3, 5.8]

* * *

- System: Vero cells
- assayOverview: in vitro
- Format: cell-based
- measurementParameters: African green monkey
Answer each item with its documented CC50.
Answers are plain numbers, in µM.

- compound: "COc1cc(NC(C(=O)c2c[nH]c3cc(F)ccc23)c2ccc(Cl)cc2OC)cc(OCCO)c1 (single isomer, unassigned) [Compound 1B]"
  CC50 [µM]: 6.3
- compound: "COc1cc(NC(C(=O)c2c[nH]c3c(C)cc(F)cc23)c2ccc(Cl)cc2OC)cc(OCCO)c1 (single isomer, unassigned) [Compound 8B]"
  CC50 [µM]: 5.7
- compound: "COc1cc(NC(C(=O)c2c[nH]c3cc(OC)c(F)cc23)c2ccc(Cl)cc2OC)cc(OCCO)c1 (single isomer, unassigned) [Compound 7B]"
  CC50 [µM]: 7.8
- compound: "COc1cc(NC(C(=O)c2c[nH]c3cc(Cl)ccc23)c2ccc(Cl)cc2OC)cc(OCCO)c1 (single isomer, unassigned) [Compound 4B]"
  CC50 [µM]: 7.4

Continue with the compound presented below.
Quickly give me recorded CC50 for COc1cc(NC(C(=O)c2c[nH]c3c(F)cc(C)cc23)c2ccc(Cl)cc2OC)cc(OCCO)c1 (single isomer, unassigned) [Compound 10B]
3.8

* * *

- assayOverview: in vitro
- Type: cell-based
- measurementParameters: African green monkey, CC50
quantity: CC50 (µM)
Answers are plain numbers, in µM.

Past entries and their recorded results:
- compound: "COc1cc(NC(C(=O)c2c[nH]c3c(C)c(Cl)ccc23)c2ccc(Cl)cc2OC)cc(OCCO)c1 (single isomer, unassigned)"
  quantity: "CC50"
  readoutNumber: 7.7
- compound: "COc1cc(NC(C(=O)c2c[nH]c3cc(OC)c(C)cc23)c2ccc(Cl)cc2OC)cc(OCCO)c1 (single isomer, unassigned)"
  quantity: "CC50"
  readoutNumber: 8.1
- compound: "COc1cc(NC(C(=O)c2c[nH]c3c(F)c(F)ccc23)c2ccc(Cl)cc2OC)cc(OCCO)c1 (single isomer, unassigned) [Compound 11B]"
  quantity: "CC50"
  readoutNumber: 7.7

Give CC50 for each listed item.
1. COc1cc(NC(C(=O)c2c[nH]c3cc(OC)c(F)cc23)c2ccc(Cl)cc2OC)cc(OCCO)c1 (single isomer, unassigned)
2. COc1cc(NC(C(=O)c2c[nH]c3cc(F)c(F)cc23)c2ccc(Cl)cc2OC)cc(OCCO)c1 (single isomer, unassigned)
3. COc1cc(NC(C(=O)c2c[nH]c3cc(F)ccc23)c2ccc(Cl)cc2OC)cc(OCCO)c1 (single isomer, unassigned)
4. COc1cc(NC(C(=O)c2c[nH]c3cc(OC)ccc23)c2ccc(Cl)cc2OC)cc(OCCO)c1 (single isomer, unassigned)
5. COc1cc(NC(C(=O)c2c[nH]c3cc(Cl)ccc23)c2ccc(Cl)cc2OC)cc(OCCO)c1 (single isomer, unassigned)

7.2
7.9
9.7
7.8
9.5

Give CC50 for each listed item.
1. COc1cc(NC(C(=O)c2c[nH]c3c(F)cc(C)cc23)c2ccc(Cl)cc2OC)cc(OCCO)c1 (single isomer, unassigned) [Compound 10A]
2. COc1cc(NC(C(=O)c2c[nH]c3c(C)c(F)ccc23)c2ccc(Cl)cc2OC)cc(OCCO)c1 (single isomer, unassigned)
3. COc1cc(NC(C(=O)c2c[nH]c3c(C)cc(F)cc23)c2ccc(Cl)cc2OC)cc(OCCO)c1 (single isomer, unassigned)

8
7.4
7.7

* * *

Answer each item with its documented CC50 at 3 days.
- assayOverview: in vitro
- Type: cell-based
- measurementParameters: African green monkey
Give bare numbers, in µM.

- compound: "COc1cc(NC(C(=O)c2c[nH]c3c(F)cc(C)cc23)c2ccc(Cl)cc2OC)cc(OCCO)c1 (single isomer, unassigned) [Compound 10A]"
  measureUnit: "µM"
  CC50 at 3 days: 4.1

Give CC50 at 3 days for each listed item.
1. COc1cc(NC(C(=O)c2c[nH]c3cc(OC)ccc23)c2ccc(Cl)cc2OC)cc(OCCO)c1 (single isomer, unassigned) [Compound 5A]
2. COc1cc(NC(C(=O)c2c[nH]c3c(C)cc(F)cc23)c2ccc(Cl)cc2OC)cc(OCCO)c1 (single isomer, unassigned) [Compound 8A]

1. 5.2
2. 3.5

* * *

- Tested on: Vero cells
- assayOverview: in vitro
- Type: cell-based
- measurementParameters: African green monkey
Hi! Just check whether CC50 is below 6 µM. Below gives Fulfilled, equal or above gives Not fulfilled.

Strictly below 6 µM in CC50? COc1cc(NC(C(=O)c2c[nH]c3c(C)c(F)ccc23)c2ccc(Cl)cc2OC)cc(OCCO)c1 (single isomer, unassigned) [Compound 2B]
Not fulfilled

Strictly below 6 µM in CC50? COc1cc(NC(C(=O)c2c[nH]c3c(F)c(F)ccc23)c2ccc(Cl)cc2OC)cc(OCCO)c1 (single isomer, unassigned) [Compound 11B]
Fulfilled

Strictly below 6 µM in CC50? COc1cc(NC(C(=O)c2c[nH]c3c(C)c(Cl)ccc23)c2ccc(Cl)cc2OC)cc(OCCO)c1 (single isomer, unassigned) [Compound 3B]
Not fulfilled

Strictly below 6 µM in CC50? COc1cc(NC(C(=O)c2c[nH]c3cc(OC)ccc23)c2ccc(Cl)cc2OC)cc(OCCO)c1 (single isomer, unassigned) [Compound 5B]
Not fulfilled

Strictly below 6 µM in CC50? COc1cc(NC(C(=O)c2c[nH]c3cc(F)c(F)cc23)c2ccc(Cl)cc2OC)cc(OCCO)c1 (single isomer, unassigned) [Compound 9A]
Not fulfilled

Strictly below 6 µM in CC50? COc1cc(NC(C(=O)c2c[nH]c3cc(OC)c(C)cc23)c2ccc(Cl)cc2OC)cc(OCCO)c1 (single isomer, unassigned) [Compound 6B]
Fulfilled

* * *

Answer each item with its documented CC50.
- assayOverview: in vitro
- Assay type: cell-based
- measurementParameters: African green monkey, CC50
Answers are plain numbers, in µM.

Past entries and their recorded results:
- molecule: "COc1cc(NC(C(=O)c2c[nH]c3cc(OC)c(C)cc23)c2ccc(Cl)cc2OC)cc(OCCO)c1 (single isomer, unassigned) [Compound 6A]"
  measureUnit: "µM"
  readoutNumber: 5.1
- molecule: "COc1cc(NC(C(=O)c2c[nH]c3cc(OC)c(F)cc23)c2ccc(Cl)cc2OC)cc(OCCO)c1 (racemic) [Compound 7]"
  measureUnit: "µM"
  readoutNumber: 7.4
- molecule: "COc1cc(NC(C(=O)c2c[nH]c3c(C)c(F)ccc23)c2ccc(Cl)cc2OC)cc(OCCO)c1 (single isomer, unassigned)"
  measureUnit: "µM"
  readoutNumber: 4.2
- molecule: "COc1cc(NC(C(=O)c2c[nH]c3c(C)cc(F)cc23)c2ccc(Cl)cc2OC)cc(OCCO)c1 (single isomer, unassigned) [Compound 8A]"
  measureUnit: "µM"
  readoutNumber: 4.2
- molecule: "COc1cc(NC(C(=O)c2c[nH]c3cc(OC)c(C)cc23)c2ccc(Cl)cc2OC)cc(OCCO)c1 (racemic) [Compound 6]"
  measureUnit: "µM"
  readoutNumber: 5.6
- molecule: "COc1cc(NC(C(=O)c2c[nH]c3c(F)c(F)ccc23)c2ccc(Cl)cc2OC)cc(OCCO)c1 (racemic) [Compound 11]"
  measureUnit: "µM"
  readoutNumber: 5.8
- molecule: "COc1cc(NC(C(=O)c2c[nH]c3cc(Cl)ccc23)c2ccc(Cl)cc2OC)cc(OCCO)c1 (single isomer, unassigned) [Compound 4A]"
  measureUnit: "µM"
  readoutNumber: 4.9
- molecule: "COc1cc(NC(C(=O)c2c[nH]c3c(C)cc(F)cc23)c2ccc(Cl)cc2OC)cc(OCCO)c1 (racemic) [Compound 8]"
  measureUnit: "µM"
  readoutNumber: 8
- molecule: "COc1cc(NC(C(=O)c2c[nH]c3cc(OC)c(F)cc23)c2ccc(Cl)cc2OC)cc(OCCO)c1 (single isomer, unassigned) [Compound 7A]"
  measureUnit: "µM"
  readoutNumber: 6.1
- molecule: "COc1cc(NC(C(=O)c2c[nH]c3c(C)c(Cl)ccc23)c2ccc(Cl)cc2OC)cc(OCCO)c1 (single isomer, unassigned) [Compound 3A]"
  measureUnit: "µM"
  readoutNumber: 4.5

Give CC50 for each listed item.
1. COc1cc(NC(C(=O)c2c[nH]c3c(F)c(F)ccc23)c2ccc(Cl)cc2OC)cc(OCCO)c1 (single isomer, unassigned) [Compound 11A]
2. COc1cc(NC(C(=O)c2c[nH]c3cc(F)ccc23)c2ccc(Cl)cc2OC)cc(OCCO)c1 (racemic) [Compound 1]
3. COc1cc(NC(C(=O)c2c[nH]c3c(C)c(Cl)ccc23)c2ccc(Cl)cc2OC)cc(OCCO)c1 (racemic) [Compound 3]

6.5
6.2
5.5
